Cited source: patent US20240343707A1

# EC50 per record follows
Tested on: VEEV (TC-83)
Experiment: microbe, parasite or virus in culture
Assay type: cell-based
Settings: Venezuelan equine encephalitis virus, read-out: VEEV EC50 (μM)
Respond numerically; units are µM and should not be typed.

[Q] Fill: EC50 (VEEV (TC-83)) for this compound O=C1CCc2cc(NC(=O)c3cc(C#Cc4ncccn4)cc(OC(F)(F)F)c3)ccc2N1 [Compound 16]
[A] 0.16

[Q] State, for VEEV (TC-83), measured EC50 of the compound listed here: O=C(Nc1cccc(C#Cc2ncccn2)c1)c1cc(C2CC2)[nH]c(=O)c1 [Compound 18]
[A] 10.3

[Q] Provide EC50, tested on VEEV (TC-83), for COc1cc(C#Cc2ncccn2)cc(C(=O)Nc2ccc3c(c2)CCC(=O)N3)c1 [Compound 14] .
[A] 0.44

---

System: VEEV (TC-83)
Assay: microbe, parasite or virus in culture
Assay type: cell-based
Settings: Venezuelan equine encephalitis virus, read-out: VEEV EC50 (μM)
Known log10 of EC50 of a selection of molecules
Values below are the log10 of the recorded EC50, with µM as the unit.

Known log10 of EC50 results, listed for orientation:
>>> print(df.to_string())
                                inputsmiles     resulttype  number
0  O=C1Cc2cc(NC(=O)c3cccc(C#Cc4ncccn4)c3)ccc2N1  log10 of EC50    0.32
1  CC(C)(C#N)c1ccc(NC(=O)c2cccc(C#Cc3ncccn3)c2)cc1  log10 of EC50   -0.47
2  COc1cc(C#Cc2ncccn2)cc(C(=O)Nc2ccc3c(c2)CCC(=O)N3C)c1  log10 of EC50   -0.48
3  O=C(Nc1cccc(C#Cc2ncccn2)c1)c1ccc(N2CCCCC2=O)cc1  log10 of EC50    1.51
4  O=C1CCCc2cc(NC(=O)c3cccc(C#Cc4ncccn4)c3)ccc2N1  log10 of EC50    0.36

[Q] Look up and report measured log10 of EC50 for this entry: "O=C1CCc2cc(NC(=O)c3cccc(C#Cc4ncccn4)c3)ccc2N1"
[A] 0.20

[Q] Complete the entry with log10 of EC50 for "O=C(Nc1ccc2c(c1)CCCC2)c1cccc(C#Cc2ncccn2)c1"
[A] 0.10

[Q] Consider the molecule "O=C1CCc2ccc(NC(=O)c3cccc(C#Cc4ncccn4)c3)cc2N1" and give its recorded log10 of EC50.
[A] 0.34

---

Examples of molecules with documented EC50 follow.
Test system: VEEV (TC-83)
Assay: microbe, parasite or virus in culture
Type: cell-based
Settings: Venezuelan equine encephalitis virus, read-out: VEEV EC50 (μM)

>>> print(df.to_string())
                                inputsmiles   result
0  O=C(Nc1ccc2c(c1)CCCCC2)c1cccc(C#Cc2ncccn2)c1  > 40 µM
1  CCOP(=O)(OCC)c1ccc(NC(=O)c2cccc(C#Cc3ncccn3)c2)cc1  0.43 µM

[Q] For the molecule "CN1C(=O)CCc2cc(NC(=O)c3cccc(C#Cc4ncccn4)c3)ccc21" , report EC50.
[A] 0.77 µM

[Q] Please list EC50 recorded for the molecule "O=C1CCc2cc(C(=O)Nc3cccc(C#Cc4ncccn4)c3)ccc2N1"
[A] 3.98 µM

[Q] Indicate the recorded EC50 value for this molecule: "O=C(Nc1cccc(C#Cc2ncccn2)c1)C12CC3CC(CC(C3)C1)C2"
[A] > 40 µM

---

Assay: in vitro
Assay type: cell-based
Conditions: human
resultType: CC50

// worked examples, CC50 included
>>> print(df.to_string())
                                   compound   result
0  O=C1Cc2cc(NC(=O)c3cccc(C#Cc4ncccn4)c3)ccc2N1 [Compound 4]  > 40 µM
1  O=C(Nc1ccc2c(c1)CCCN2)c1cccc(C#Cc2ncccn2)c1 [Compound 12]  38.8 µM
2  O=C1CCc2cc(NC(=O)c3cccc(C#Cc4ncccn4)c3)ccc2N1 [Compound 1]  > 40 µM
3  CCOP(=O)(OCC)c1ccc(NC(=O)c2cccc(C#Cc3ncccn3)c2)cc1 [Compound 6]  > 40 µM
4  O=C(Nc1cccc(C#Cc2ncccn2)c1)c1cc(C2CC2)[nH]c(=O)c1 [Compound 18]  > 40 µM

[Q] Tell me CC50 reported for CC(C)(C)c1ccc(NC(=O)c2cccc(C#Cc3ncccn3)c2)cc1 [Compound 19]
[A] 5.08 µM

[Q] Given the compound O=C(Nc1ccc2c(c1)CCCC2)c1cccc(C#Cc2ncccn2)c1 [Compound 22] , write its reported CC50.
[A] > 40 µM

[Q] Give CC50 for the following compound: O=C1CC(Cc2ccc(NC(=O)c3cccc(C#Cc4ncccn4)c3)cc2)C(=O)N1 (stereo not shown) [Compound 13]
[A] > 40 µM

[Q] Indicate its recorded CC50; the compound in question is O=C1CCCc2cc(NC(=O)c3cccc(C#Cc4ncccn4)c3)ccc2N1 [Compound 2]
[A] > 40 µM

[Q] Name the recorded CC50 of the compound listed here: O=C1CCc2ccc(NC(=O)c3cccc(C#Cc4ncccn4)c3)cc2N1 [Compound 17]
[A] > 40 µM

[Q] For the compound O=C(Nc1cccc(C#Cc2ncccn2)c1)c1nc2c(s1)CCCC2 [Compound 9] , report CC50.
[A] 9.59 µM

---

Tested on: VEEV (TC-83)
Experiment: microbe, parasite or virus in culture
Assay type: cell-based
Details: Venezuelan equine encephalitis virus, read-out: VEEV EC50 (μM)
resultType: EC50 (µM)
Number only, in µM; omit the unit.

[Q] Give the observed EC50 of O=C1CC(Cc2ccc(NC(=O)c3cccc(C#Cc4ncccn4)c3)cc2)C(=O)N1 (stereo not drawn) for VEEV (TC-83).
[A] 7.19

[Q] Give EC50; test system VEEV (TC-83); molecule "CC(C)(C)c1ccc(NC(=O)c2cccc(C#Cc3ncccn3)c2)cc1"
[A] 0.93

[Q] Give EC50 for this entry on VEEV (TC-83): "O=C(Nc1ccc(C(F)(F)F)cc1)c1cccc(C#Cc2ncccn2)c1"
[A] 0.71

[Q] Provide VEEV (TC-83) EC50 reading for "O=C(Nc1ccc2c(c1)CCCN2)c1cccc(C#Cc2ncccn2)c1" .
[A] 1.39

---

Recorded CC50 by entry
Experiment: in vitro
Assay type: cell-based
Details: human
Reply numerically in µM, unit not repeated.

>>> df
                                inputsmiles  number
0  COc1cc(C#Cc2ncccn2)cc(C(=O)Nc2ccc3c(c2)CCC(=O)N3C)c1      26

API: the following record is the query input.
[Q] Supply reported CC50 belonging to this compound: "O=C(Nc1ccc2c(c1)CCCCC2)c1cccc(C#Cc2ncccn2)c1"
[A] 6.97

---

Assay: in vitro
Format: cell-based
Conditions: human
resultType: CC50

In the examples that follow, each entry is paired with its recorded CC50.
                                   molecule   result
0  O=C1CCc2cc(C(=O)Nc3cccc(C#Cc4ncccn4)c3)ccc2N1 [Compound 5]  > 40 µM
1  O=C1CCc2cc(NC(=O)c3cc(C#Cc4ncccn4)cc(OC(F)(F)F)c3)ccc2N1 [Compound 16]  > 40 µM

We now examine a further molecule.
[Q] Determine from records and report CC50 for O=C(Nc1cccc(C#Cc2ncccn2)c1)C12CC3CC(CC(C3)C1)C2 [Compound 11]
[A] > 40 µM
